biological target: recombinantly produced human-NGF (human, UniProt P01138 122-241, limits assumed); assay: ELISA, human NGF coated, IgG titrated
Sequence (P01138 122-241 limits assumed): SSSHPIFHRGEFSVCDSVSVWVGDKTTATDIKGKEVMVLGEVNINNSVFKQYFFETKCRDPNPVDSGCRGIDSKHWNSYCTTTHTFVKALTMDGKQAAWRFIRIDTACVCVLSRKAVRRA
Each item that follows carries a reported EC50.
Return type: number; implicit unit ng/mL.

Here are 2 binders together with their reported answers.
{"columns": ["binder", "meas-value"],
 "data": [
  ["Ab40 (antibody, human IgG1, V domains shown) VH: EVQLVQSGAEVKKPGATVKISCKVSGYTFITYWISWVQQAPGKGLEWMGAIDPSDSDARYSPSFQGRVTITADKSTDTAYMELSSLRSEDTAVYYCAKSDPGYSGYSLLYGFDSWGQGTLVTVSS VL: DIVMTQSPLSLPVTLGQPASISCRSSQSLVQRNGNTYLSWFQQRPGQPPRLLIYQVSNRYSGVPDRFSGSGSGTDFTLKISRVEAEDVGVYYCGQGAHLPLTFGQGTKVEIK", 0.0172],
  ["Ab16 (antibody, human IgG1, V domains shown) VH: EVQLVQSGAEVKKPGATVKISCKVSGYSFITYWISWVQQAPGKGLEWMGAIDPSDSDARYSPSFQGRVTITADTSTDTAYMELSSLRSEDTAVYYCAKSDPGYSGYSLLYGFDSWGQGTLVTVSS VL: DVVMTQSPLSLPVTLGQPASISCRSSQSLVQRNGNTYLSWFQQRPGQPPRLLIYQVSNRYSGVPDRFSGSGSGTDFTLKISRVEAEDVGVYYCGQGAHLPLTFGQGTKVEIK", 0.0173]
]}

// next item, EC50 requested
Prompt line: Entry under review: Ab6 (antibody, human IgG1, V domains shown) VH: EVQLVQSGAEVKKPGATVKISCKVSGYTFITYWISWVQQAPGKGLEWMGAIDPSDSDARYSPSFQGRVTITADTSTDTAYMELSSLRSEDTAVYYCAKSDPGYSGYSLLYGFDSWGQGTLVTVSS VL: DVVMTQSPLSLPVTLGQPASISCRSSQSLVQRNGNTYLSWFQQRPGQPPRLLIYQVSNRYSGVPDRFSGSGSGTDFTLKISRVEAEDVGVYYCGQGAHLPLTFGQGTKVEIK . Reported EC50?
Response line: 0.021

Reference for the values: patent US20230220057A1
